conditions: 298.15 K
resultType: surface tension liquid-gas (mN/m)

• CCOP(=O)([O-])OCC.CCn1cc[n+](C)c1 [1-ethyl-3-methylimidazolium diethyl phosphate] = 34.46
• COP(=O)([O-])OC.Cn1cc[n+](C)c1 [1,3-dimethylimidazolium dimethylphosphate] = 46.98
• CC(C)O = 20.94
• CCCO = 23.31

* * *

conditions: 333.15 K
± gives the expanded uncertainty stated by the source.
surface tension liquid-gas values for the molecules below.
resultType: surface tension liquid-gas

* CCOP(=O)([O-])OCC.CCn1cc[n+](C)c1 [1-ethyl-3-methylimidazolium diethyl phosphate] | 32.81 ± 1.2 mN/m
* COP(=O)([O-])OC.Cn1cc[n+](C)c1 [1,3-dimethylimidazolium dimethylphosphate] | 41.99 ± 1.3 mN/m
* CC(C)O [propan-2-ol] | 18.11 ± 0.59 mN/m
* CCCO [propan-1-ol] | 20.66 ± 0.65 mN/m

* * *

conditions: 323.15 K
resultType: surface tension liquid-gas (mN/m)

• CC(C)O = 18.87
• COP(=O)([O-])OC.Cn1cc[n+](C)c1 [1,3-dimethylimidazolium dimethylphosphate] = 42.67
• CCOP(=O)([O-])OCC.CCn1cc[n+](C)c1 [1-ethyl-3-methylimidazolium diethyl phosphate] = 33.15
• CCCO = 21.34

* * *

mass density values for the compounds below.
conditions: 298.15 K; 101 kPa; Liquid; Vibrating tube method
resultType: mass density (kg/m3)

* CCOP(=O)([O-])OCC.CCn1cc[n+](C)c1 [1-ethyl-3-methylimidazolium diethyl phosphate] | 1146
* COP(=O)([O-])OC.Cn1cc[n+](C)c1 [1,3-dimethylimidazolium dimethylphosphate] | 1250
* CC(C)O | 781
* CCCO | 800.1

* * *

viscosity values for the molecules below.
conditions: 293.15 K; 101 kPa; Liquid
resultType: viscosity (mPa·s)

* CCOP(=O)([O-])OCC.CCn1cc[n+](C)c1 [1-ethyl-3-methylimidazolium diethyl phosphate] | 537.03
* CCCO | 2.2
* CC(C)O | 2.41
* COP(=O)([O-])OC.Cn1cc[n+](C)c1 [1,3-dimethylimidazolium dimethylphosphate] | 381.22

* * *

surface tension liquid-gas values for the compounds below.
details: 303.15 K
resultType: surface tension liquid-gas (mN/m)

• COP(=O)([O-])OC.Cn1cc[n+](C)c1 [1,3-dimethylimidazolium dimethylphosphate] = 46.21
• CCOP(=O)([O-])OCC.CCn1cc[n+](C)c1 [1-ethyl-3-methylimidazolium diethyl phosphate] = 34.19
• CCCO [propan-1-ol] = 22.81
• CC(C)O [propan-2-ol] = 20.54

* * *

details: 303.15 K; 101 kPa; Liquid
resultType: viscosity (mPa·s)

- CC(C)O: 1.79
- CCCO: 1.73
- CCOP(=O)([O-])OCC.CCn1cc[n+](C)c1 [1-ethyl-3-methylimidazolium diethyl phosphate]: 284.34
- COP(=O)([O-])OC.Cn1cc[n+](C)c1 [1,3-dimethylimidazolium dimethylphosphate]: 221.41

* * *

viscosity values for the compounds below.
conditions: 323.15 K; 101 kPa; Liquid
resultType: viscosity (mPa·s)

* COP(=O)([O-])OC.Cn1cc[n+](C)c1 [1,3-dimethylimidazolium dimethylphosphate] | 147.95
* CCOP(=O)([O-])OCC.CCn1cc[n+](C)c1 [1-ethyl-3-methylimidazolium diethyl phosphate] | 90.02
* CC(C)O | 1.03
* CCCO | 1.12

* * *

settings: 323.15 K; 101 kPa; Liquid; Vibrating tube method
mass density values for the compounds below.
resultType: mass density (kg/m3)

- CCOP(=O)([O-])OCC.CCn1cc[n+](C)c1 [1-ethyl-3-methylimidazolium diethyl phosphate]: 1116
- CC(C)O [propan-2-ol]: 759
- CCCO [propan-1-ol]: 780
- COP(=O)([O-])OC.Cn1cc[n+](C)c1 [1,3-dimethylimidazolium dimethylphosphate]: 1233

* * *

details: 333.15 K; 101 kPa; Liquid
resultType: viscosity (mPa·s)

• CCCO = 0.91
• CCOP(=O)([O-])OCC.CCn1cc[n+](C)c1 [1-ethyl-3-methylimidazolium diethyl phosphate] = 58.02
• CC(C)O = 0.82
• COP(=O)([O-])OC.Cn1cc[n+](C)c1 [1,3-dimethylimidazolium dimethylphosphate] = 133.73

* * *

settings: 313.15 K; 101 kPa; Liquid
resultType: viscosity (mPa·s)

* CCCO | 1.38
* CCOP(=O)([O-])OCC.CCn1cc[n+](C)c1 [1-ethyl-3-methylimidazolium diethyl phosphate] | 150.96
* COP(=O)([O-])OC.Cn1cc[n+](C)c1 [1,3-dimethylimidazolium dimethylphosphate] | 178.66
* CC(C)O | 1.35

* * *

settings: 293.15 K; 101 kPa; Liquid; Vibrating tube method
Numbers after ± are expanded uncertainties.
mass density values for the compounds below.
resultType: mass density

* CC(C)O | 786 ± 5 kg/m3
* CCOP(=O)([O-])OCC.CCn1cc[n+](C)c1 [1-ethyl-3-methylimidazolium diethyl phosphate] | 1151 ± 10 kg/m3
* COP(=O)([O-])OC.Cn1cc[n+](C)c1 [1,3-dimethylimidazolium dimethylphosphate] | 1254 ± 9 kg/m3
* CCCO | 804 ± 5 kg/m3

* * *

details: 293.15 K
± gives the expanded uncertainty stated by the source.
resultType: surface tension liquid-gas

• CCCO = 23.67 ± 0.72 mN/m
• COP(=O)([O-])OC.Cn1cc[n+](C)c1 [1,3-dimethylimidazolium dimethylphosphate] = 47.78 ± 1.5 mN/m
• CCOP(=O)([O-])OCC.CCn1cc[n+](C)c1 [1-ethyl-3-methylimidazolium diethyl phosphate] = 34.78 ± 1.3 mN/m
• CC(C)O = 21.28 ± 0.67 mN/m

* * *

conditions: 303.15 K; 101 kPa; Liquid; Vibrating tube method
Numbers after ± are expanded uncertainties.
mass density values for the compounds below.
resultType: mass density

• CC(C)O = 777 ± 5 kg/m3
• CCCO = 796 ± 5 kg/m3
• CCOP(=O)([O-])OCC.CCn1cc[n+](C)c1 [1-ethyl-3-methylimidazolium diethyl phosphate] = 1141 ± 9 kg/m3
• COP(=O)([O-])OC.Cn1cc[n+](C)c1 [1,3-dimethylimidazolium dimethylphosphate] = 1247 ± 9 kg/m3

* * *

conditions: 298.15 K; 101 kPa; Liquid
resultType: viscosity (mPa·s)

- CCOP(=O)([O-])OCC.CCn1cc[n+](C)c1 [1-ethyl-3-methylimidazolium diethyl phosphate]: 320.89
- CCCO [propan-1-ol]: 1.99
- CC(C)O [propan-2-ol]: 2.06
- COP(=O)([O-])OC.Cn1cc[n+](C)c1 [1,3-dimethylimidazolium dimethylphosphate]: 336.74

* * *

conditions: 313.15 K
surface tension liquid-gas values for the compounds below.
resultType: surface tension liquid-gas (mN/m)

* CCCO | 22.19
* COP(=O)([O-])OC.Cn1cc[n+](C)c1 [1,3-dimethylimidazolium dimethylphosphate] | 44.89
* CCOP(=O)([O-])OCC.CCn1cc[n+](C)c1 [1-ethyl-3-methylimidazolium diethyl phosphate] | 33.54
* CC(C)O | 19.97

* * *

mass density values for the compounds below.
settings: 313.15 K; 101 kPa; Liquid; Vibrating tube method
resultType: mass density (kg/m3)

• CC(C)O = 768
• COP(=O)([O-])OC.Cn1cc[n+](C)c1 [1,3-dimethylimidazolium dimethylphosphate] = 1240
• CCOP(=O)([O-])OCC.CCn1cc[n+](C)c1 [1-ethyl-3-methylimidazolium diethyl phosphate] = 1130
• CCCO = 788
